These data points were gathered from patent US5670492A.

# Test system: ddY-strain male mice
# MEASUREMENT DESCRIPTION: Acute Toxicity
# Format: in vivo
# TEST PARAMETERS: i.v., mortality at 14 days after administration
# Method: Compound (I) was intravenously administered to ddY-strain male mice each weighing 20±1 g. MLD (minimum lethal dose) was determined by observing the mortality at 14 days after administration.
MEASURED PARAMETER: MLD (minimum lethal dose)

Entry CCN(CC)c1cc(/C=C/C(=O)N2CC(CBr)c3c2cc(OC(=O)N2CCN(C)CC2)c2[nH]c(C)c(C(=O)OC)c32)ccc1OC (stereo not drawn) ; MLD (minimum lethal dose) = > 8.0 mg/kg

MLD (minimum lethal dose) reported for this molecule COC(=O)c1c(C)[nH]c2c(OC(C)=O)cc3c(c12)C(CCl)CN3C(=O)/C=C/c1ccc(OC)c(N(C)C)c1 (stereo not drawn) : 4.0 mg/kg

Sure, the documented MLD (minimum lethal dose) for CNN(C)C(=O)Oc1cc2c(c3c(C(=O)OC)c(C)[nH]c13)C(CBr)CN2C(=O)/C=C/c1ccc(OC)c(N(C)C)c1 (stereo not drawn) is 2.0 mg/kg
